Reported values of pIC50 for individual entries
- SYSTEM TESTED: MCH receptor (Homo sapiens)
- MEASUREMENT PROTOCOL: High throughput functional screening FLIPR/FDSS6000 (intracellular Ca2+ evoked by MCH)
- Assay type: cell-based
- STUDY CONDITIONS: FLIPR/FDSS, antagonist activity vs 50 nM MCH; class by percent of control at 10^−7 M or IC50; read-out: class
pIC50: −log10 of the molar value.

Solved entries:
> print(dat)
                           structure.string      observed
1  Cc1cnc(N[C@H]2CC[C@@H](NC(=O)N(C)C3(c4ccc(Cl)cc4)CC3)CC2)nc1N(C)C  6.70 to 7.30
2  COc1ccc(S(=O)(=O)c2ncccc2C(=O)N[C@H]2CC[C@@H](Nc3ncc(C)c(N(C)C)n3)CC2)cc1        < 6.70
3  Cc1cnc(N[C@H]2CC[C@@H](NC(=O)Nc3ccccc3F)CC2)nc1N(C)C  6.70 to 7.30
4  Cc1cc(N[C@H]2CC[C@@H](C(=O)N[C@H](C)c3ccc(Cl)cc3)CC2)nc2ccccc12  6.70 to 7.30

q: Provide measured pIC50 value, entry: `Cc1cnc(N[C@H]2CC[C@@H](NC(=O)c3cccnc3S(=O)(=O)c3cccc(C(F)(F)F)c3)CC2)nc1N(C)C`
a: 6.70 to 7.30

* * *

- SYSTEM TESTED: MCH receptor (Homo sapiens, UniProt Q99705)
- MEASUREMENT PROTOCOL: High throughput functional screening FLIPR/FDSS6000 (intracellular Ca2+ evoked by MCH)
- Assay type: cell-based
- STUDY CONDITIONS: FLIPR/FDSS, antagonist activity vs 50 nM MCH; class by percent of control at 10^−7 M or IC50; read-out: class
QUANTITY KIND: IC50

Solved entries:
> print(dat)
                                   compound  quantity.kind      observed
1  Cc1cnc(N[C@H]2CC[C@@H](NC(=O)c3cccnc3S(=O)(=O)c3ccc(C(F)(F)F)cc3)CC2)nc1N(C)C           IC50  50 to 200 nM
2  Cc1cnc(N[C@H]2CC[C@@H](NC(=O)COc3cc(C(F)(F)F)nn3C)CC2)nc1N(C)C           IC50       < 50 nM
3  CNc1nc(N[C@H]2CC[C@@H](NC(=O)COc3cc(C(F)(F)F)n(C)n3)CC2)ncc1C           IC50      > 200 nM
4  Cc1cnc(N[C@H]2CC[C@@H](NC(=O)N(C)C(C)(C)c3ccc(Cl)cc3)CC2)nc1N(C)C           IC50       < 50 nM
5  Cc1cnc(N[C@H]2CC[C@@H](NC(=O)N(C)c3ccccc3Cl)CC2)nc1N(C)C           IC50  50 to 200 nM

q: Provide measured IC50 value, entry: `Cc1ccc(S(=O)(=O)c2ncccc2C(=O)N[C@H]2CC[C@@H](Nc3ncc(C)c(N(C)C)n3)CC2)cc1`
a: 50 to 200 nM

q: Provide measured IC50 value, entry: `Cc1cnc(N[C@H]2CC[C@@H](NC(=O)c3cccnc3S(=O)(=O)c3ccc(Cl)cc3)CC2)nc1N(C)C`
a: < 50 nM

q: Provide measured IC50 value, entry: `Cc1cnc(N[C@H]2CC[C@@H](NC(=O)Nc3cccc(Cl)c3Cl)CC2)nc1N(C)C`
a: > 200 nM

q: Provide measured IC50 value, entry: `COc1ccc(S(=O)(=O)c2ncccc2C(=O)N[C@H]2CC[C@@H](Nc3nc(C)cc(N(C)C)n3)CC2)cc1`
a: > 200 nM

q: Provide measured IC50 value, entry: `Cc1cnc(N[C@H]2CC[C@@H](C(=O)NC(C)(C)c3ccc(Cl)cc3)CC2)nc1N(C)C`
a: 50 to 200 nM

* * *

Reported values of IC50 for individual entries
- SYSTEM TESTED: MCH receptor (Homo sapiens, UniProt Q99705)
- MEASUREMENT PROTOCOL: High throughput functional screening FLIPR/FDSS6000 (intracellular Ca2+ evoked by MCH)
- Format: cell-based
- STUDY CONDITIONS: FLIPR/FDSS, antagonist activity vs 50 nM MCH; class by percent of control at 10^−7 M or IC50; table after the classification; read-out: class
Where a name gives a salt, the structure may show the parent alone.

Solved entries:
> print(dat)
                                   compound  observed
1  CN(C)c1ccnc(N[C@H]2CC[C@@H](CNC(=O)Cc3c(Cl)ccc(Cl)c3Cl)CC2)n1 [Example 3220, hydrochloride]   < 50 nM
2  Cc1cc(C(=O)N[C@H]2CC[C@@H](Nc3nc4c(c(N(C)C)n3)CCCC4)CC2)ccc1F [Example 3109, hydrochloride]   < 50 nM
3  CN(C)c1ccnc(N[C@H]2CC[C@@H](NC(=O)COc3ccc(Cl)c(Cl)c3)CC2)n1 [Example 3393, hydrochloride]   < 50 nM
4  Cc1cc(N[C@H]2CC[C@@H](NC(=O)c3ccc(Cl)nc3)CC2)nc2ccccc12 [Example 3175, hydrochloride]   < 50 nM
5  Cc1cc(N[C@H]2CC[C@@H](NC(=O)c3cccnc3O)CC2)nc2ccccc12 [Example 3173, hydrochloride]  > 200 nM

q: Provide measured IC50 value, entry: CN(C)c1cc(N[C@H]2CC[C@@H](NCCc3ccc(Br)cc3OC(F)(F)F)CC2)nc2ccccc12 [Example 6, dihydrochloride]
a: 50 to 200 nM

q: Provide measured IC50 value, entry: CNc1nc(N[C@H]2CC[C@@H](C(N)Cc3ccccc3OC(F)(F)F)CC2)nc2c1CCCC2 (relative stereo) [Example 12, dihydrochloride]
a: 50 to 200 nM

q: Provide measured IC50 value, entry: CN(C)c1ccnc(N[C@H]2CC[C@@H](NC(=O)c3cccnc3Oc3ccccc3)CC2)n1 [Example 3129, hydrochloride]
a: 50 to 200 nM

q: Provide measured IC50 value, entry: Cc1ccc(Oc2ncccc2C(=O)N[C@H]2CC[C@@H](Nc3cc(C)c4ccccc4n3)CC2)cc1 [Example 3092, hydrochloride]
a: < 50 nM

q: Provide measured IC50 value, entry: Cc1cc(N[C@H]2CC[C@@H](NC(=O)c3ccccn3)CC2)nc2ccccc12 [Example 3181, hydrochloride]
a: 50 to 200 nM

q: Provide measured IC50 value, entry: Cc1cccc(OCC(=O)N[C@H]2CC[C@@H](Nc3ccc4ccccc4n3)CC2)c1 [Example 3051, hydrochloride]
a: < 50 nM

q: Provide measured IC50 value, entry: Cc1cc(N[C@H]2CC[C@@H](NC(=O)c3cccc(F)c3)CC2)nc2ccccc12 [Example 3170, hydrochloride]
a: < 50 nM

q: Provide measured IC50 value, entry: Cc1cnc(N[C@H]2CC[C@@H](NC(=O)c3cc(F)cc(F)c3)CC2)nc1N(C)C [Example 3390, hydrochloride]
a: < 50 nM

q: Provide measured IC50 value, entry: `NC(=O)c1cc(N[C@H]2CC[C@@H](NC(=O)c3ccc(F)c(F)c3)CC2)nc2ccccc12`
a: > 200 nM

* * *

Reported values of IC50 for individual entries
- SYSTEM TESTED: MCH receptor (Homo sapiens)
- MEASUREMENT PROTOCOL: High throughput functional screening FLIPR/FDSS6000 (intracellular Ca2+ evoked by MCH)
- Type: cell-based
- STUDY CONDITIONS: FLIPR/FDSS, antagonist activity vs 50 nM MCH; class by percent of control at 10^−7 M or IC50; table after the classification; read-out: class
Structures can show the parent of a compound that is named as a salt.

Solved entries:
> print(dat)
                                   molecule                system.tested  quantity.kind  observed
1  COc1cccc(OCC(=O)N[C@H]2CC[C@@H](Nc3cc(C)c4ccccc4n3)CC2)c1 [Example 3098, hydrochloride]  MCH receptor (Homo sapiens)           IC50   < 50 nM
2  CN(C)c1nc(N[C@H]2CC[C@@H](CNC(=O)c3cccnc3Oc3ccccc3)CC2)nc2c1CCCC2 [Example 3113, hydrochloride]  MCH receptor (Homo sapiens)           IC50  > 200 nM

q: Provide measured IC50 value, entry: CNc1cc(N[C@H]2CC[C@@H](CNCc3ccc(Br)cc3OC(F)(F)F)CC2)nc2ccccc12 [Example 3, dihydrochloride]
a: < 50 nM

q: Provide measured IC50 value, entry: CN(C)c1ccnc(N[C@H]2CC[C@@H](CNC(=O)c3cccnc3Oc3ccccc3)CC2)n1 [Example 3145, hydrochloride]
a: > 200 nM

* * *

Reported values of pIC50 for individual entries
- SYSTEM TESTED: UniProt:Q99705
- MEASUREMENT PROTOCOL: High throughput functional screening FLIPR/FDSS6000 (intracellular Ca2+ evoked by MCH)
- Format: cell-based
- STUDY CONDITIONS: FLIPR/FDSS, antagonist activity vs 50 nM MCH; class by percent of control at 10^−7 M or IC50; table after the classification; read-out: class
pIC50: −log10 of the molar value. Counter-ions that a name gives are not always drawn.

Solved entries:
> print(dat)
                                   compound   system.tested  quantity.kind  observed
1  Cc1cc(N[C@H]2CC[C@@H](NC(=O)c3cncc(Cl)c3)CC2)nc2ccccc12  UniProt:Q99705          pIC50    > 7.30
2  O=C(N[C@H]1CC[C@@H](Nc2ccc3ccccc3n2)CC1)c1cccnc1Oc1ccccc1 [Example 3032, hydrochloride]  UniProt:Q99705          pIC50    > 7.30
3  CNc1nc(N[C@H]2CC[C@@H](NCc3ccc(Br)cc3OC(F)(F)F)CC2)nc2c1CCCC2 [Example 9, dihydrochloride]  UniProt:Q99705          pIC50    < 6.70

Turning now to a further compound:
q: Provide measured pIC50 value, entry: Cc1cc(C(=O)N[C@H]2CC[C@@H](Nc3cc(C)c4ccccc4n3)CC2)ccc1F [Example 3080, hydrochloride]
a: > 7.30
